# TEST SUMMARY: qHTS Assay to Find Inhibitors of Chronic Active B-Cell Receptor Signaling: Hit Validation in Primary Screen; note: nearly all actives have a fitted effect of over 75% in size
# RUN CONDITIONS: ABC-DLBCL IkB-luc/CBR ratio luminescence, 4 h; series mostly up to 46.1 µM
The campaign covered roughly 1,200 compounds. About 480 (40%) were called active. Inconclusive results (about 29%) are left out. Calls come from the whole dose curve; as a rule, active = well fitted inhibition curve with a large enough effect; inconclusive = small, poorly fitted or top-dose-only effect; inactive = no such curve, though single readings can be large or run the other way. The list shows a part of the results.
Pick one: label 1 for active, label 0 for inactive

Worked cases, answers included:
Oc1ccc(-c2nc3cnccn3c2Nc2ccc3c(c2)OCCO3)cc1 :: label 1
CN(C)NC(=S)NC(=O)C12CC3CC(CC(C3)C1)C2 :: label 0
CN(CC(=O)Nc1ccccc1C(F)(F)F)C(=O)c1ccccc1Sc1ccccc1C#N :: label 0
COc1cc2c(cc1OC)C(/C(C#N)=N\O)=NC(C)(C)C2 :: label 0

Asked: Look up the recorded call for N#C/C(=C\c1cn(Cc2ccc(F)cc2)c2ccccc12)C(=O)NCc1ccco1 in this test.
Given back: label 0

Asked: Which result was noted for this molecule in the test: O=C(Cc1ccc(-c2ccccc2)cc1)NCc1ccccc1
Given back: label 1

Asked: For this molecule, state the assay outcome: CN1CCN(Cc2cc(COCc3ccccc3)c3cccnc3c2O)CC1
Given back: label 0

Asked: Tell me the assay call for O=S1(=O)[C@H]2C[C@H](CO)O[C@@]2(CO)CN1Cc1ccc(-c2cccc(Cl)c2)cc1 please.
Given back: label 0

Asked: Outcome logged for Nc1nc(SCc2nc(-c3ccccc3)no2)[nH]c(=O)c1-c1ccccc1 in this assay:
Given back: label 1

Asked: What is the recorded call for this molecule in the test? CCCCN1C(=O)N(C)C2C1N(C)C(=O)N2CCCC (configuration not stated)
Given back: label 0

Asked: Outcome logged for COc1ccc(-c2ccc(CCC(=O)O)n2-c2ccccc2OC)cc1 in this assay:
Given back: label 0

Asked: Hello, I am checking results. What call was entered for CCOc1ccc2c(c1)OC(c1ccc(OC)cc1)(C(F)(F)F)NC2=O (configuration not stated) ?
Given back: label 1

Asked: Fill in: this test's call for COc1ccc(-c2nn(C)c(=O)c3ccccc23)cc1CNS(C)(=O)=O is ___
Given back: label 0

Asked: For this molecule, state the assay outcome: COc1cccc(Nc2sc(C(=O)c3ccc(Cl)cc3)c(N)c2C(=O)NCc2ccc(C)cc2)c1
Given back: label 1

Asked: Short answer needed: outcome of this test for CCOc1cccc(/C=C/c2ccc3cccc(O)c3n2)c1OC ?
Given back: label 0

Asked: I would be grateful if you could indicate the recorded call for COc1ccc(/C(C)=N/Nc2ncc(Cl)cc2Cl)c(O)c1 .
Given back: label 0

Asked: State the result this test recorded for Cc1ccc(-n2cc(CNCCc3ncc(C)[nH]3)c(-c3ccc(F)cc3)n2)cc1 .
Given back: label 0

Asked: Lab log entry: NC(=S)N/N=C\c1ccc(-c2cccc(Cl)c2Cl)o1 — outcome as called in the assay?
Given back: label 0

Asked: Tell me the recorded outcome of this test for Cc1cccc(NS(=O)(=O)c2ccc(-c3cnc(C4CC4)o3)cc2)c1C .
Given back: label 1

Asked: Query: recorded result category for COc1ccc([C@H]2CC(=O)C=C(c3ccc(OC)cc3OC)C2)cc1 in this test
Given back: label 1

Asked: Write down the call the test reported for this molecule. Item: COc1cc(/C=C\C(=O)OCn2nnc3ccccc3c2=O)cc(OC)c1OC
Given back: label 0

Asked: Assay outcome for COc1ccc(CNC(=O)/C(C#N)=C/c2cccc(OC)c2OC)cc1 : what was it?
Given back: label 1

###

# TEST SUMMARY: qHTS Assay to Find Inhibitors of Chronic Active B-Cell Receptor Signaling: Hit Validation in Primary Screen; note: nearly all actives have a fitted effect of over 75% in size; note: potency is the fitted concentration of half-maximal effect
# RUN CONDITIONS: ABC-DLBCL IkB-luc/CBR ratio luminescence, 4 h; series mostly up to 46.1 µM
The campaign covered roughly 1,200 compounds. About 480 (40%) were called active. Another 29% or so got no clear call; they are omitted. The list shows a part of the results.
MEASURE: Potency

Solved entries (count: 8):
Cc1csc(N/N=C/c2ccccn2)n1 :: inactive
COC(=O)C1C(O)=C(C=Nc2ccccc2)C(=O)CC1(C)C (stereo unspecified) :: 16.4 µM (active)
CCN(CC)S(=O)(=O)c1ccc(N2CCOCC2)c(NC(=O)c2[nH]c(C)c(C(C)=O)c2C)c1 :: inactive
O=C(CSc1nnnn1-c1ccccc1)Nc1nsc(-c2ccc(Cl)cc2)n1 :: inactive
NC(=S)Nc1nc2ccccc2s1 :: inactive
CC1CC(C)CN(S(=O)(=O)c2ccc(NC(=O)c3ccc(=O)[nH]c3)cc2)C1 (stereo unspecified) :: 9.2 µM (active)
CCCC(=O)Nc1ncnc2c1ncn2[C@@H]1O[C@@H]2COP(=O)(O)O[C@H]2[C@H]1OC(=O)CCC :: inactive
CSc1ccc(COC(=O)c2cc([N+](=O)[O-])ccc2N2CCOCC2)cc1 :: 0.58 µM (active)

Provide the reported Potency of each entry below, same order.
1. CCN1C(=O)c2cccc3c(S(=O)(=O)Nc4nc(C)cs4)ccc1c23
2. Cc1[nH]n(C(N)=S)c(=O)c1N=Nc1cccc(Cl)c1
3. C=CCn1c(SCc2c(C)noc2C)nc2ccccc2c1=O
4. CCCCn1c(=O)c(F)cn(Cc2ccc(OC)c([N+](=O)[O-])c2)c1=O
5. CCc1nnc(NC(=O)CSc2nnc(-c3ccccc3NC(=O)c3ccccc3)o2)s1
6. COC(=O)c1ccc(C)c(NS(=O)(=O)c2ccc3c(c2)OCCO3)c1
7. CCN(CC)c1ccc2c(cc1=O)[C@@H](NC)CCc1cc(OC)c(OC)c(OC)c1-2

Given back:
1. 3.66 µM (active)
2. inactive
3. 14.6 µM (active)
4. inactive
5. inactive
6. 9.2 µM (active)
7. 5.8 µM (active)

###

# TEST SUMMARY: qHTS Assay to Find Inhibitors of Chronic Active B-Cell Receptor Signaling: Hit Validation in Primary Screen; note: nearly all actives have a fitted effect of over 75% in size
# RUN CONDITIONS: ABC-DLBCL IkB-luc/CBR ratio luminescence, 4 h; series mostly up to 46.1 µM
Among all 1,200 compounds or so, about 480 (40%) were called active. Inconclusive results (about 29%) are left out. The call rests on the fitted dose curve; in most records, active means well fitted inhibition curve with a large enough effect; inconclusive means small, poorly fitted or top-dose-only effect; inactive means no such curve, though single readings can be large or run the other way. The list shows a part of the results.
Select the correct class. Options are 1 for active, -1 for inactive and nothing else.

Worked examples follow.
CCOC(=O)C1C(C(=O)OC)=C(c2ccc(OC)cc2)c2ccccc2N1S(=O)(=O)C(F)(F)F (stereo not given) :: -1
CCOc1ccccc1NS(=O)(=O)c1ccc(-c2cnc(C3CC3)o2)cc1 :: 1
COc1ccc(OC)c(C2CC(=O)Nc3n[nH]c(-c4ccccc4)c32)c1 (stereo not given) :: -1
COc1ccccc1NS(=O)(=O)c1ccc(-c2cnc(C3CC3)o2)cc1 :: -1
O=c1cc(-c2cccc(F)c2)[nH]c2ccccc12 :: 1
COc1cccc(N2CCN(C(=O)c3ccc(CS(=O)c4ccccc4Cl)o3)CC2)c1 (stereo not given) :: 1

Asked: Dear colleague, could you share the recorded outcome for NNC(=O)c1[nH]c2ccc(Br)cc2c1-c1ccccc1 when you have a moment?
Given back: -1

Asked: Please share the test call associated with NCCNC(=O)Cc1cccc(NC(=O)Cc2ccc(Nc3ncnc4c3ncn4[C@@H]3O[C@H](CO)[C@@H](O)[C@H]3O)cc2)c1 .
Given back: 1

Asked: Per the records of this test, what outcome belongs to O=c1cc(-c2ccc(F)cc2)[nH][nH]1 ?
Given back: -1

Asked: # fetch the recorded call for NCCNC(=O)Cc1ccc(NC(=O)Cc2ccc(Nc3ncnc4c3ncn4[C@@H]3O[C@H](CO)[C@@H](O)[C@H]3O)cc2)cc1 here
Given back: 1

###

# TEST SUMMARY: qHTS Assay to Find Inhibitors of Chronic Active B-Cell Receptor Signaling: Hit Validation in Primary Screen; note: nearly all actives have a fitted effect of over 75% in size
# RUN CONDITIONS: ABC-DLBCL IkB-luc/CBR ratio luminescence, 4 h; series mostly up to 46.1 µM
Screen size: about 1,200 compounds; about 480 (40%) were called active. Not shown: some 29% with an inconclusive outcome. Calls follow the shape of the dose curve; as a rule, active = well fitted inhibition curve with a large enough effect; inconclusive = small, poorly fitted or top-dose-only effect; inactive = no such curve, though single readings can be large or run the other way. The list shows a part of the results.
The categories you may choose from are active, inactive

COc1cc(C(=O)c2cocc2C(=O)c2ccc3c(c2)OCO3)cc(OC)c1OC :: active
CCOc1cc(Br)c(C=O)cc1OCC :: active
CC(=O)N1CC(=O)N=C1SCC(=O)Nc1nc(C)c(-c2ccccc2)s1 :: active
COc1cc(C(=O)N/N=C(\C)Cc2ccccc2)cc(OC)c1OC :: inactive
COc1cc(C(=O)N/N=C(\Cc2ncc[nH]2)c2ccccc2)cc(OC)c1OC :: inactive

Asked: Hey, what did the test say about CCOCCCNC(=O)c1ccc2c(c1)N=C(CC)c1cc(Br)ccc1S2 ?
Given back: active

Asked: Record request — test call for COc1ccc(-c2c(C)nn3c(N)c(C#N)cnc23)cc1OC
Given back: active

Asked: Give the logged outcome of this assay for the following molecule: Oc1cccc(/C=N/Nc2ccc(Cl)nn2)c1O
Given back: active

Asked: I'd appreciate the recorded outcome for CCOC(=O)C(NCc1ccccc1)(NC(=O)c1ccccc1)C(F)(F)F (stereo unspecified) from this test.
Given back: inactive

Asked: # fetch the recorded call for COc1cc(OC)c(OC)cc1/C=C/C(=O)c1ccc(NS(=O)(=O)c2ccc(C)cc2)cc1 here
Given back: active

Asked: Any idea what this test logged for CC1=NN(C(N)=S)C(=O)C1N=Nc1ccc(F)cc1 (stereo unspecified) ?
Given back: inactive
